# System: MOLT-3
# ASSAY_COMMENT: MTT cytotoxicity assay, MOLT-3
# Format: cell-based, human
# REPORTED_CONDITIONS: 48 h, read-out: IC50 against MOLT-3
IC50 values for the compounds below.
Please respond with the number in µM and leave the unit unwritten.

// solved cases for IC50 follow
{"COMPOUND": "C=CC1CN2CCC1CC2C(Oc1cc(OC(c2ccnc3ccccc23)C2CC3CCN2CC3C=C)nc(OC(c2ccnc3ccccc23)C2CC3CCN2CC3C=C)n1)c1ccnc2ccccc12 (stereo not shown) [AP-1, 2,4,6-Tri(9-O-cinchoninyl)pyrimidine]", "TARGET_OR_TEST_SYSTEM": "MOLT-3", "VALUE_OBSERVED": 6.7}
{"COMPOUND": "C=CC1CN2CCC1CC2C(Oc1cc(OC(c2ccnc3ccc(OC)cc23)C2CC3CCN2CC3C=C)nc(OC(c2ccnc3ccc(OC)cc23)C2CC3CCN2CC3C=C)n1)c1ccnc2ccc(OC)cc12 (single isomer, unassigned) [AP-3, 2,4,6-Tri(9-O-quininyl)pyrimidine]", "TARGET_OR_TEST_SYSTEM": "MOLT-3", "VALUE_OBSERVED": 4.5}
{"COMPOUND": "CCC1CN2CCC1CC2C(Oc1cc(OC(c2ccnc3ccc(OC)cc23)C2CC3CCN2CC3CC)nc(OC(c2ccnc3ccc(OC)cc23)C2CC3CCN2CC3CC)n1)c1ccnc2ccc(OC)cc12 (stereo not shown) [AP-8]", "TARGET_OR_TEST_SYSTEM": "MOLT-3", "VALUE_OBSERVED": 5.2}

Let's switch to this compound now.
Can you look up IC50 on MOLT-3 for C=CC1CN2CCC1CC2C(Oc1cc(OC(c2ccnc3ccc(OC)cc23)C2CC3CCN2CC3C=C)nc(OC(c2ccnc3ccc(OC)cc23)C2CC3CCN2CC3C=C)n1)c1ccnc2ccc(OC)cc12 (single isomer, unassigned) [AP-4, 2,4,6-Tri (9-O-quinidinyl)pyrimidine] ? 3.1

----------
# System: NALM-6
# ASSAY_COMMENT: MTT cytotoxicity assay, NALM-6
# Format: cell-based, human
# REPORTED_CONDITIONS: 48 h, read-out: IC50 against NALM-6
PARAMETER: IC50 (µM)
The reply should be a number in µM, with the unit left off.

Some entries whose results are on file:
{"COMPOUND": "C=CC1CN2CCC1CC2C(Oc1cc(OC(c2ccnc3ccccc23)C2CC3CCN2CC3C=C)nc(OC(c2ccnc3ccccc23)C2CC3CCN2CC3C=C)n1)c1ccnc2ccccc12 (stereo not shown) [AP-1, 2,4,6-Tri(9-O-cinchoninyl)pyrimidine]", "DISPLAY_UNIT": "µM", "IC50": 3.4}
{"COMPOUND": "C=CC1CN2CCC1CC2C(Oc1cc(OC(c2ccnc3ccc(OC)cc23)C2CC3CCN2CC3C=C)nc(OC(c2ccnc3ccc(OC)cc23)C2CC3CCN2CC3C=C)n1)c1ccnc2ccc(OC)cc12 (single isomer, unassigned) [AP-4, 2,4,6-Tri (9-O-quinidinyl)pyrimidine]", "DISPLAY_UNIT": "µM", "IC50": 2.8}
{"COMPOUND": "CCC1CN2CCC1CC2C(Oc1cc(OC(c2ccnc3ccc(OC)cc23)C2CC3CCN2CC3CC)nc(OC(c2ccnc3ccc(OC)cc23)C2CC3CCN2CC3CC)n1)c1ccnc2ccc(OC)cc12 (stereo not shown) [AP-8]", "DISPLAY_UNIT": "µM", "IC50": 3.7}

# evaluate next
Short answer please: IC50, NALM-6, entry C=CC1CN2CCC1CC2C(Oc1cc(OC(c2ccnc3ccc(OC)cc23)C2CC3CCN2CC3C=C)nc(OC(c2ccnc3ccc(OC)cc23)C2CC3CCN2CC3C=C)n1)c1ccnc2ccc(OC)cc12 (single isomer, unassigned) [AP-3, 2,4,6-Tri(9-O-quininyl)pyrimidine] 3.6
